Target: P-glycoprotein (ABCB1/MDR1) (Homo sapiens, UniProt P08183)
Sequence (P08183 whole entry): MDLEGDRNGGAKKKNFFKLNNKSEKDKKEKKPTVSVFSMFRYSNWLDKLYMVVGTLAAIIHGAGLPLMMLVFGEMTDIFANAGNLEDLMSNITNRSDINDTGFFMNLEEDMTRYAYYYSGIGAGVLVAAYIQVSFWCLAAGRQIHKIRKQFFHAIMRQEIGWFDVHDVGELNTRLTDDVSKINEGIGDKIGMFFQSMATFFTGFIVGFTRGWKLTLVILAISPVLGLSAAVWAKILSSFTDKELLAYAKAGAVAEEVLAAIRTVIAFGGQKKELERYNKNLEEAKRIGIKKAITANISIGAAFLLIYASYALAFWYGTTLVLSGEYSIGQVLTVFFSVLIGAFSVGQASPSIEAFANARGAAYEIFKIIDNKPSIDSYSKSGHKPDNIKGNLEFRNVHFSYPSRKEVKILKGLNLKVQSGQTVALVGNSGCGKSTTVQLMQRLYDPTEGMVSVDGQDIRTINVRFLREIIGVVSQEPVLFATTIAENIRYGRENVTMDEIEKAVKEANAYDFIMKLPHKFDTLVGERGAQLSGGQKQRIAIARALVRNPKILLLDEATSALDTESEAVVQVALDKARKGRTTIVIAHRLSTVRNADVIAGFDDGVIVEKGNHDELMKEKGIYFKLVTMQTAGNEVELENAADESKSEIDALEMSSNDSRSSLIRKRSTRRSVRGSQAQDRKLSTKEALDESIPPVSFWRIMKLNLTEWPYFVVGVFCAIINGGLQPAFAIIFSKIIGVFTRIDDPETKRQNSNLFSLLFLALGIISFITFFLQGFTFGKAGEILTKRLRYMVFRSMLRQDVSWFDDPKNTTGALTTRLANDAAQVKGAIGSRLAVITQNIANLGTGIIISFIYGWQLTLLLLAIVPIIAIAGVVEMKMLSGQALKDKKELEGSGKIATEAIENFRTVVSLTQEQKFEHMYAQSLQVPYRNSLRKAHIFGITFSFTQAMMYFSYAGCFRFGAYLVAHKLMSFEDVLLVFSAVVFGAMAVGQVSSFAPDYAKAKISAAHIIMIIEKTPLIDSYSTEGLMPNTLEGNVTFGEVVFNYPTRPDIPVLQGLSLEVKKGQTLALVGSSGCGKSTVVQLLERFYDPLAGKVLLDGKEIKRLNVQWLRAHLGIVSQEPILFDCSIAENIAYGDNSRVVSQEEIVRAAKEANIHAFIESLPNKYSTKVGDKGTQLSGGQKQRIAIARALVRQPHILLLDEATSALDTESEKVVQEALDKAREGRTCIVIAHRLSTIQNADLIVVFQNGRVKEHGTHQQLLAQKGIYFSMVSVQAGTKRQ
Assay: transepithelial transport in L-MDR1 vs LLC-PK1 monolayers
readout: pIC50
Lab note — pIC50 values are minus log10 of concentrations in M.

Data request: I'd like to know its pIC50. The molecule in question is "CC(C)CN(C[C@@H](O)[C@H](Cc1ccccc1)NC(=O)O[C@H]1CO[C@H]2OCC[C@H]21)S(=O)(=O)c1ccc(N)cc1"
Data returned: 3.92
